All figures here come from the domain aggregation screens of Martell et al. (2025).

# Protocol details: soluble fraction after stress (log2 fold change); higher = more stays soluble; pooled small domains, quantitative proteomics
# Measurement setup: stress: pH 4
Provide the recorded soluble fraction (log2) for the entries that follow.
One number for each entry.

Some sequences with known soluble fraction (log2) results, for comparison:
{"Primary sequence": "HMLGYGEQEREAQKYLEMHTAFQADPSLQKMYLPENQYALISKVMEMTGIKNVKSYLTPPNEL", "Property": "soluble fraction (log2)", "Meas value": -0.236}
{"Primary sequence": "HMGARWPIQDRPLTATEAAAVRRMYAGGLPHGRSKNSVITEVWGDLSNKPKRLDWLNQALEGGA", "Property": "soluble fraction (log2)", "Meas value": 0.357}
{"Primary sequence": "HMSVTDDQLRVFTNKSGTKIKAKIVEVSDDKVKLIRDDNKKFIVPINSLSEEDQDYLRDWVSNEAVEP", "Property": "soluble fraction (log2)", "Meas value": -0.0786}

# evaluate next
Please give the measured soluble fraction (log2) for this sequence: HMSAETREELVGREGVSLTDLRPSGFALFGQEKIDVVSESEFIEEGTSVRIVSVEGSRHIVRAKR
-1.24

----------
# Protocol details: soluble fraction after stress (log2 fold change); higher = more stays soluble; pooled small domains, quantitative proteomics
# Measurement setup: stress: pH 4
The label depends only on soluble fraction (log2): class 1 if it is at least -0.4, class 0 if it is smaller.

Below are worked cases with known answers.
{"Primary sequence": "HMSFPDTYFKGNKVIGLSYNDLKKFLNNAGYSKFDEEVEEWGEKRVSIEDDMVDFYLEDDKVVSI", "Label value": "class 1"}
{"Primary sequence": "HMLGNIERALEMLQEVAATMDPVDIRLLLSMAQVESVRGNTEAAVKLIDEALVIDPGNERIEQIRLRVL", "Label value": "class 0"}
{"Primary sequence": "HMELNEIEFENLKESIIIHLEKESLSPHELVKHIQTIHPDKVTAVIQWMLENGFIKTDAGGQLTLVSK", "Label value": "class 0"}
{"Primary sequence": "HMSIEIIEITSNSSPKNLSEIIDIDATQIVADLMGLGIMKAIDTPLENSEIEQLLEKYNLIAEFVE", "Label value": "class 0"}
{"Primary sequence": "HMSRAHTELEEKLLTMLEENDMTLPMRVISNIASRIEGIIIPEEKILEVLKKSYDRYREHQMD", "Label value": "class 0"}

Would you say HMDKPIFTLRENEVLYWASMGKTYAEIATIVGISVRTVKFHMGNVVSKLGVSNARQAIRLGVELDLITPMQ shows soluble fraction (log2) at minimum -0.4?
class 0

Could you please find out whether HMQGATVYIKSDDIGKTTNEQGSFNFDKLKKNRYTLEISFIGYETKNLQAYTDRENIVQLNRKS has soluble fraction (log2) that meets -0.4 or exceeds it?
class 0

Could you tell me if the measured soluble fraction (log2) of HMDENMQRYNTMEEIKKEFPYAEDTVRKLIAMGAIRGGGKVDANGDPADMDLSRDMLRMMVFNDRAGAYG reaches -0.4 or more?
class 0

Decide: is the reported value of soluble fraction (log2) for HMHMSLTEKYKELTDLAVSAGVQNLNVREQDGVLYVDGDASGAVKQQLWDTYGKLDPDYTSGDLVLNI equal to or greater than -0.4?
class 0

Answer whether soluble fraction (log2) of HMENEIFVPKVFMDWYNKVDKSIKVFKAFNLIEKETDPRLKEWVEDNQDEFAKIWLGQLLPVV is greater than or equal to -0.4.
class 1

Can HMNFDVETGLPLDSRLVVSGLIQRDGINSLKRYEGMIVYVESEAKNYQLVGGISNTDWAELS be said to have soluble fraction (log2) at or above -0.4?
class 0

Can HMQNPYDTLGVSRDSTDAEIKKAYRKLAMEHHPDKGGDSQRFAEINNAYDNIKDMSSRQNFENDPSNFQ be said to have soluble fraction (log2) at or above -0.4?
class 1

// inclusive: soluble fraction (log2) at least -0.4? input: HMKKQLTISDGDWAGKVSSMLEDMGVINSASEFDKYLSDNGYSNVIKSGTYDVSPEDTFQELAEKIT
class 0
